- assay.method.text: Human HepG2 cell viability assay in 384 well format
- Format: toxicity, cell-based
- Parameters: dose 125 nL, time 70.5 hour; concentration not given beside the values
- study.conditions: HepG2 cells, read-out: Inhibition
cytotoxicity at 70.5 h by entry:
Value expressed in %; do not type the unit.

Use these answered entries as a reference point.
Cc1cnc(CN2CCN(c3nc(C)cs3)C(C)C2)cn1 (stereo not given): -16.4
Cc1cnc(N2CCCn3c(nnc3Cn3cccn3)C2)nc1: 10.6
COCC(=O)N1C[C@H]2CNC[C@@]2(C(=O)NCc2snnc2C)C1: -6.27
CCC(CC)c1cc(CNC(=O)N2CCCC(C(=O)NC)C2)on1 (stereo not given): -0.471

Lab book: cytotoxicity at 70.5 h of O=C(NC[C@H]1OC[C@@H](NCc2cccs2)[C@@H]1O)N1CCOCC1 noted as 8.48

cytotoxicity at 70.5 h recorded for this compound, COc1cc(Br)c(CNC(C)c2nnc3n2CCC3)cc1OC (stereo not given) , is 10.6

// sample O=C(NC1CCN(c2ccc(-c3ccccc3F)nn2)C1)c1ccc[nH]1 (stereo not given) , its cytotoxicity at 70.5 h was 10.6

Measured cytotoxicity at 70.5 h, O=c1[nH]c(N2CC(O)C2)nc2c1cnn2-c1ccccc1 : -9.7

cytotoxicity at 70.5 h for COC1CCN(C(=O)Cn2ccc3ccccc32)CC1 is -3.16

// data source = ChEMBL document CHEMBL3507680
